Where do these numbers come from? They come from patent US8853215B2.

Molecular target: RBP4 (Mus musculus (Mouse), UniProt Q00724)
Test: Single administration test in mice, plasma RBP4 by ELISA
Format: in vivo
Conditions: male C57BL/6J or ICR mice, 50 mg/kg oral single dose, 7 hr after administration, mean±SD
Record form. Attribute: RBP4 (% of initial/Control) 7 hr. Fill in for each entry.

Q: # input compound: "CC(C)(C)c1ccccc1N1CCN(C(=O)C(=O)O)CC1" ; wanted: its RBP4 (% of initial/Control) 7 hr
Ans: 50.2 ± 0.9 % of initial/Control

Q: # input compound: "CC(C)(C)c1cc(Cl)ccc1N1CCN(C(=O)c2ccc(OCC(=O)O)cn2)CC1" ; wanted: its RBP4 (% of initial/Control) 7 hr
Ans: 54.9 ± 8.8 % of initial/Control

Q: # input compound: "CC(C)(C)c1ccccc1N1CCN(C(=O)C(=O)NS(=O)(=O)NCC2CC2)CC1" ; wanted: its RBP4 (% of initial/Control) 7 hr
Ans: 45.1 ± 6.2 % of initial/Control

Q: # input compound: "CC(C)(C)c1cc(Cl)ccc1N1CCN(C(=O)CC(=O)O)CC1" ; wanted: its RBP4 (% of initial/Control) 7 hr
Ans: 37.6 ± 0.7 % of initial/Control

* * *

Record form. Attribute: RBP4 (% of initial/Control) 24 hr. Fill in for each entry.
Biological target: RBP4 (Mus musculus (Mouse), UniProt Q00724)
Assay: Single administration test in mice, plasma RBP4 by ELISA
Assay type: in vivo
Details: male C57BL/6J or ICR mice, 50 mg/kg oral single dose, 24 hr after administration, mean±SD

Q: # input molecule: CC(C)(C)c1cc(Br)ccc1N1CCN(C(=O)CC(=O)O)CC1 [Example 69] ; wanted: its RBP4 (% of initial/Control) 24 hr
Ans: 50.0 ± 2.4 % of initial/Control

Q: # input molecule: CC(C)(C)c1ccccc1N1CCN(C(=O)C2(C(=O)O)CC2)CC1 [Example 71] ; wanted: its RBP4 (% of initial/Control) 24 hr
Ans: 120.9 ± 9.0 % of initial/Control

Q: # input molecule: CC(C)(C)c1ccccc1N1CCN(C(=O)c2ccc(OCC(=O)O)cc2)CC1 [Example 24] ; wanted: its RBP4 (% of initial/Control) 24 hr
Ans: 73.1 ± 25.6 % of initial/Control

Q: # input molecule: CC(C)(C)c1ccccc1N1CCN(C(=O)C(=O)NCCc2ccc(C(=O)O)cc2)CC1 [Example 203] ; wanted: its RBP4 (% of initial/Control) 24 hr
Ans: 107.9 ± 15.6 % of initial/Control

Q: # input molecule: CC(C)(C)c1ccccc1N1CCN(C(=O)c2ccc(SCC(=O)O)nc2)CC1 [Example 25] ; wanted: its RBP4 (% of initial/Control) 24 hr
Ans: 75.8 ± 6.0 % of initial/Control

Q: # input molecule: CC(C)(C)c1cc(Br)ccc1N1CCN(C(=O)C(=O)O)CC1 [Example 67] ; wanted: its RBP4 (% of initial/Control) 24 hr
Ans: 94.9 ± 22.6 % of initial/Control

Q: # input molecule: CC(C)(C)c1cc(Cl)ccc1N1CCN(C(=O)c2ccc(OCC(=O)O)cn2)CC1 [Example 210] ; wanted: its RBP4 (% of initial/Control) 24 hr
Ans: 97.6 ± 24.5 % of initial/Control

Q: # input molecule: CC(C)(C)c1ccccc1N1CCN(C(=O)c2ncoc2CCC(=O)O)CC1 [Example 178] ; wanted: its RBP4 (% of initial/Control) 24 hr
Ans: 123.3 ± 14.2 % of initial/Control

Q: # input molecule: CC(C)(C)c1ccccc1N1CCN(C(=O)Cn2cnnn2)CC1 [Example 94] ; wanted: its RBP4 (% of initial/Control) 24 hr
Ans: 89.2 ± 11.6 % of initial/Control

Q: # input molecule: CC(C)(C)c1ccccc1N1CCN(C(=O)C(=O)O)CC1 [Example 44] ; wanted: its RBP4 (% of initial/Control) 24 hr
Ans: 145.9 ± 19.6 % of initial/Control

Q: # input molecule: CC(C)(C)c1ccccc1N1CCN(C(=O)C(=O)NCC(=O)O)CC1 [Example 87] ; wanted: its RBP4 (% of initial/Control) 24 hr
Ans: 80.3 ± 18.4 % of initial/Control

Q: # input molecule: CC(C)(C)c1ccccc1N1CCN(C(=O)C(=O)NS(=O)(=O)NCC2CC2)CC1 [Example 39] ; wanted: its RBP4 (% of initial/Control) 24 hr
Ans: 86.6 ± 12.4 % of initial/Control

Q: # input molecule: Cc1nc(C(=O)N2CCN(c3ccccc3C(C)(C)C)CC2)cn1CC(=O)O [Example 205] ; wanted: its RBP4 (% of initial/Control) 24 hr
Ans: 125.7 ± 20.9 % of initial/Control

Q: # input molecule: Cc1ccc(N2CCN(C(=O)C(=O)O)CC2)c(C(C)(C)C)c1 [Example 82] ; wanted: its RBP4 (% of initial/Control) 24 hr
Ans: 101.5 ± 9.7 % of initial/Control

Q: # input molecule: CC(C)(C)c1cc(Cl)ccc1N1CCN(C(=O)C(=O)O)CC1 [Example 180] ; wanted: its RBP4 (% of initial/Control) 24 hr
Ans: 93.0 ± 9.6 % of initial/Control

Q: # input molecule: CC(C)(C)c1ccccc1N1CCN(C(=O)c2cc(OCC(=O)O)no2)CC1 [Example 216] ; wanted: its RBP4 (% of initial/Control) 24 hr
Ans: 66.4 ± 28.1 % of initial/Control

Q: # input molecule: CC(C)(C)c1cc(Cl)ccc1N1CCN(C(=O)CC(=O)O)CC1 [Example 207] ; wanted: its RBP4 (% of initial/Control) 24 hr
Ans: 52.0 ± 2.8 % of initial/Control

Q: # input molecule: CC(C)(C)c1ccccc1N1CCN(C(=O)C(=O)N2CCC(C(=O)O)C2)CC1 (stereo not shown) [Example 191] ; wanted: its RBP4 (% of initial/Control) 24 hr
Ans: 127.6 ± 40.9 % of initial/Control

Q: # input molecule: CC(C)(C)c1ccccc1N1CCN(C(=O)C(=O)Nc2ccc(OCC(=O)O)cc2)CC1 [Example 201] ; wanted: its RBP4 (% of initial/Control) 24 hr
Ans: 100.2 ± 13.6 % of initial/Control

Q: # input molecule: CC(C)(C)c1ccccc1N1CCN(C(=O)C(=O)Nc2ccc(CCC(=O)O)cc2)CC1 [Example 197] ; wanted: its RBP4 (% of initial/Control) 24 hr
Ans: 91.3 ± 15.9 % of initial/Control

Q: # input molecule: CC(C)(C)c1ccccc1N1CCN(C(=O)C(=O)N2CCC(C(=O)O)CC2)CC1 [Example 89] ; wanted: its RBP4 (% of initial/Control) 24 hr
Ans: 105.9 ± 27.6 % of initial/Control

Q: # input molecule: CC(C)(C)c1ccccc1N1CCN(C(=O)CCC(=O)O)CC1 [Example 53] ; wanted: its RBP4 (% of initial/Control) 24 hr
Ans: 93.6 ± 15.1 % of initial/Control

* * *

Record form. Attribute: RBP4 (% of initial/Control) 4 hr. Fill in for each entry.
Target: RBP4 (Rattus norvegicus (Rat))
Test: Single administration test in Wistar fatty rats, plasma RBP4 by ELISA
Assay type: in vivo
Settings: male Wistar fatty rats, 10 mg/kg oral single dose, 4 hr after administration, mean±SD

Q: # input molecule: CC(C)(C)c1ccccc1N1CCN(C(=O)NCC(=O)O)CC1 [Example 6] ; wanted: its RBP4 (% of initial/Control) 4 hr
Ans: 36.2 ± 5.0 % of initial/Control

Q: # input molecule: CC(C)(C)c1ccccc1N1CCN(C(=O)Cc2nnn[nH]2)CC1 [Example 58] ; wanted: its RBP4 (% of initial/Control) 4 hr
Ans: 76.2 ± 11 % of initial/Control

Q: # input molecule: O=C(O)CCc1nc(-c2cc(C(F)(F)F)cc(C(F)(F)F)c2)co1 [Reference Example 26, reference compound] ; wanted: its RBP4 (% of initial/Control) 4 hr
Ans: 34.7 ± 13.7 % of initial/Control

Q: # input molecule: CC(C)(C)c1ccccc1N1CCN(C(=O)CCC(=O)NS(C)(=O)=O)CC1 [Example 55] ; wanted: its RBP4 (% of initial/Control) 4 hr
Ans: 36.8 ± 5.8 % of initial/Control

Q: # input molecule: CC(C)(C)c1ccccc1N1CCN(C(=O)C(=O)O)CC1 [Example 44] ; wanted: its RBP4 (% of initial/Control) 4 hr
Ans: 59.6 ± 14.5 % of initial/Control

Q: # input molecule: CC(C)(C)c1ccccc1N1CCN(C(=O)CC(=O)O)CC1 [Example 9] ; wanted: its RBP4 (% of initial/Control) 4 hr
Ans: 49.6 ± 1.3 % of initial/Control
